Target: human glucocorticoid receptor (Homo sapiens)
Construct: purified human recombinant full-length glucocorticoid receptor (2 nM); purchased Invitrogen Part # 2893
Sequence (P04150 whole entry): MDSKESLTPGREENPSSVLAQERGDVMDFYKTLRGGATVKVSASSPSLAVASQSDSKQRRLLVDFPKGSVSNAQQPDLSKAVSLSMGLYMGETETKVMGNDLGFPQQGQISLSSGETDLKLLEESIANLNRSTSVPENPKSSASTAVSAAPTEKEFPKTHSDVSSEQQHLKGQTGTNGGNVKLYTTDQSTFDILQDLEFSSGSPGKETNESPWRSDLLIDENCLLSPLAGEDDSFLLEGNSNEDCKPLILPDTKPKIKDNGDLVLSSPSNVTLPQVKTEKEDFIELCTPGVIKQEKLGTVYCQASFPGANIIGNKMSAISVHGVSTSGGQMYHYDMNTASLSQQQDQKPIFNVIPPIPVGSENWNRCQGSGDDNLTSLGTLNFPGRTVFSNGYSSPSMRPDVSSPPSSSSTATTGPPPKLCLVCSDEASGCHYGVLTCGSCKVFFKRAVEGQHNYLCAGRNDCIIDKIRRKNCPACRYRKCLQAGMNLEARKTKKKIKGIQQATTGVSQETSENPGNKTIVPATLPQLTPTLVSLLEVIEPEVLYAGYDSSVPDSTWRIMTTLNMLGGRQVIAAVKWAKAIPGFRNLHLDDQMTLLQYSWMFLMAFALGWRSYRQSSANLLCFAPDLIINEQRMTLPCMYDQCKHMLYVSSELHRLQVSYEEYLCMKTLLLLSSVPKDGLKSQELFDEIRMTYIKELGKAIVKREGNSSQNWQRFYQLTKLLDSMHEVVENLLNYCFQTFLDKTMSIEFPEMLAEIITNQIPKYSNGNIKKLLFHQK
Experiment: Glucocorticoid Receptor Binding Assay (I), fluorescence polarization competitor kit (Fluormone GS Red)
Settings: purified human recombinant full-length GR
Experimental: In order to assess the affinity of test compounds for the human glucocorticoid receptor, a commercially available kit was used (Glucocorticoid Receptor Competitor Assay Kit, Invitrogen Part # 2893). […] After two hour incubation at room temperature in the dark, the fluorescence polarization (FP) of the samples was measured. […] Test compounds were analyzed in the concentration range from 8.5E-05 μM to 5 μM.
Endpoint label: Ki (nM)
Numbers only, in nM.

Below, each entry is followed by its recorded Ki result.
O=S(=O)(CC(F)(F)F)NCC(c1ccccc1)C(c1ccccc1)c1ccc2c(cnn2-c2ccc(F)cc2)c1 (stereo not shown)    18.3
CC(CNS(C)(=O)=O)C(c1ccccc1)c1ccc2c(cnn2-c2ccc(F)cc2)c1 (stereo not shown)    0.94
CC(C)CC(c1ccc2c(cnn2-c2ccc(F)cc2)c1)C(C)(C)CNC(=O)[C@@H](O)C(C)(C)C (single isomer, unassigned) [Example 69 diastB]    3.4

List the reported Ki of each compound below.
1. CCC(c1ccc2c(cnn2-c2ccc(F)cc2)c1)C(C)(C)CNC(=O)NC(C)(C)C (stereo not shown)
2. CC(C)CC(c1ccc2c(cnn2-c2ccc(F)cc2)c1)C(C)(C)CNC(=O)N[C@@H](C)c1cccc2ccccc12 (stereo partly shown)
3. CC(C)CC(c1ccc2c(cnn2-c2ccc(F)cc2)c1)C(C)(C)CNC(=O)NC(C)(C)Cc1ccc(F)cc1 (stereo not shown)
4. CC(C)CC(c1ccc2c(cnn2-c2ccc(F)cc2)c1)C(C)(C)CNC(=O)NC1(C)CCS(=O)(=O)C1 (stereo not shown)

Reply text:
2.1
8.7
22
6.3
